// data source = paper PMC7582316

biological target: Dd myosin-II motor domain (Dictyostelium discoideum)
Sequence (P08799 1-765): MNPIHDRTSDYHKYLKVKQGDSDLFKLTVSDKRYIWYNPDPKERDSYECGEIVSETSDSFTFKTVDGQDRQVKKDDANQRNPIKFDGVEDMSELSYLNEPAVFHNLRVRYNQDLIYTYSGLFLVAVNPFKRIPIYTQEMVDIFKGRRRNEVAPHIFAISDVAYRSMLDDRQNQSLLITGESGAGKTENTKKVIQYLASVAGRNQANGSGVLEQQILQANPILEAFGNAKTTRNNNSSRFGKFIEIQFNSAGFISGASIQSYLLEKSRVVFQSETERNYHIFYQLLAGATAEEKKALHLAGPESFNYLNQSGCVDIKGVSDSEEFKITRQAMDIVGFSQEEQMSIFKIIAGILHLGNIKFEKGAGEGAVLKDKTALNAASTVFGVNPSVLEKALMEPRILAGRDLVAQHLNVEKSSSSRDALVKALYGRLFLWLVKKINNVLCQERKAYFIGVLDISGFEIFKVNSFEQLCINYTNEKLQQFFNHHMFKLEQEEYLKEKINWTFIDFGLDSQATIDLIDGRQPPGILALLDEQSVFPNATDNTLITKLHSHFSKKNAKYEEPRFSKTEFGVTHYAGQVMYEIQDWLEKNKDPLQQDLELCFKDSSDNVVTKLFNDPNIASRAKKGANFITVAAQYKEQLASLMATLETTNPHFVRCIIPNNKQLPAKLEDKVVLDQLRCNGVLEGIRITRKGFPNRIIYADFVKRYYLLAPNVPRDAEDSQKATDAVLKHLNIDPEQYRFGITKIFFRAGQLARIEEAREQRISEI
readout-kind: Kd (µM)
Provide only the numeric value, understood in µM.

Entry Nc1ncnc2c1ncn2[C@@H]1O[C@H](COP(=O)(O)OP(=O)(O)O)[C@@H](O)[C@H]1O ; assay system Dd myosin-II motor domain (Dictyostelium discoideum); Kd recorded at 37.5
